Test system: C. elegans
procedure_details: Life span assay on Automated Lifespan Machine (SND302, SND303)
Assay type: in vivo
condition_label: SND302, SND303 25 μM; Uro A, Resveratrol 50 μM
Entries and their measured Age in days at 25% mortality follow.
The response must be a number in days with no trailing unit.

Example molecules with recorded Age in days at 25% mortality:
[
  {
    "molecule": "CC(C)NC(=O)Oc1ccc2c(c1)oc(=O)c1cc(OC(=O)NC(C)C)ccc12",
    "value_type": "Age in days at 25% mortality",
    "observed_result": 25
  },
  {
    "molecule": "O=c1oc2cc(O)ccc2c2ccc(O)cc12 [Urolithin A, reference compound]",
    "value_type": "Age in days at 25% mortality",
    "observed_result": 23.8
  },
  {
    "molecule": "CCNC(=O)Oc1ccc2c(c1)oc(=O)c1cc(OC(=O)NCC)ccc12",
    "value_type": "Age in days at 25% mortality",
    "observed_result": 24.2
  }
]

// switching to the query molecule
*Q* Value wanted: Age in days at 25% mortality (C. elegans) of entry Oc1ccc(C=Cc2cc(O)cc(O)c2)cc1 [Resveratrol, reference compound]
*A* 24.6

----------
Entries and their measured Age in days at 100% mortality follow.
Test system: C. elegans
procedure_details: Life span assay on Automated Lifespan Machine (SND302, SND303)
Type: in vivo
condition_label: SND302, SND303 25 μM; Uro A, Resveratrol 50 μM

[
  {
    "compound": "O=c1oc2cc(O)ccc2c2ccc(O)cc12 [Urolithin A, reference compound]",
    "Age in days at 100% mortality": "37.7 days"
  },
  {
    "compound": "CCNC(=O)Oc1ccc2c(c1)oc(=O)c1cc(OC(=O)NCC)ccc12 [SND302]",
    "Age in days at 100% mortality": "37.9 days"
  },
  {
    "compound": "CC(C)NC(=O)Oc1ccc2c(c1)oc(=O)c1cc(OC(=O)NC(C)C)ccc12 [SND303]",
    "Age in days at 100% mortality": "39.9 days"
  }
]

*Q* Form field: reported Age in days at 100% mortality of Oc1ccc(C=Cc2cc(O)cc(O)c2)cc1 [Resveratrol, reference compound]
*A* 37.8 days
